target_desc: GLUT1 (Mus musculus, UniProt P17809)
Sequence (P17809 whole entry): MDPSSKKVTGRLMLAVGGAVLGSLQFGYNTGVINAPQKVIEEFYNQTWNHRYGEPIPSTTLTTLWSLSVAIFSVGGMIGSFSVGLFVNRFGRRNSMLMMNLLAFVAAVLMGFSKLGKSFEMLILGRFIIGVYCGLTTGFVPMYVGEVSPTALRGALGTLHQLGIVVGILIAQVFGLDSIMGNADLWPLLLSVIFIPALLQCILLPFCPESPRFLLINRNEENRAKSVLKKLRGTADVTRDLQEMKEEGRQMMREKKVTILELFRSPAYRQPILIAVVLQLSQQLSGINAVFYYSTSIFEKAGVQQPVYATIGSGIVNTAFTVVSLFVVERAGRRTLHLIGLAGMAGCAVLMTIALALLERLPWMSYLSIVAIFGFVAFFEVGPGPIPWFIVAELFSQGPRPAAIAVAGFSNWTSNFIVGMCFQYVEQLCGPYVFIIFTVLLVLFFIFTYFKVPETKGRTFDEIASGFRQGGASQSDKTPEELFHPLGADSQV
run_description: [3H]-2-deoxyglucose uptake in L929 fibroblasts
pIC50: −log10 of the molar value.

>  <smiles_notation>
Cn1c(=O)c2c(ncn2C)n(C)c1=O

>  <pIC50>
~2.85

$$$$
